Target: UniProt Q96RI0
Sequence (Q96RI0 18-385): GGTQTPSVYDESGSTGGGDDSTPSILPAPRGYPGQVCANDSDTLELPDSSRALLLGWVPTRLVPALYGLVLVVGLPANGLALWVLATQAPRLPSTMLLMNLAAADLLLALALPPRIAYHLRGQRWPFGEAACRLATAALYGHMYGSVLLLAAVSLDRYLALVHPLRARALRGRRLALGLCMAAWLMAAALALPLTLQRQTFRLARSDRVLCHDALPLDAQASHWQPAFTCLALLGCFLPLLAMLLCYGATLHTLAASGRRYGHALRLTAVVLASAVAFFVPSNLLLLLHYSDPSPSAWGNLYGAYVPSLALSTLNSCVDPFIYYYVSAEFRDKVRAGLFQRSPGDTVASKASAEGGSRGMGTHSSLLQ
Assay: PAC-1 binding assay
Assay type: cell-based
Conditions: PAR4-AP, PAC-1
Quantity kind: PAR4 activity (in words)

COc1cccc(Cn2c(CO)c(-c3ccc(OC)nc3)c3cc(C(F)(F)F)ccc32)c1    devoid of PAR4 activity
COc1ccc(-c2c(CO)n(Cc3cccc(F)c3)c3ccc(OC(F)(F)F)cc23)cn1    devoid of PAR4 activity
COc1ccc(-c2c(CO)n(Cc3ccccc3)c3ccc(OC(F)(F)F)cc23)cn1    devoid of PAR4 activity
COc1ccc(-c2c(CO)n(C)c3ccc(C(F)(F)F)cc23)cn1    devoid of PAR4 activity
COc1ccc(-c2c(CO)n(Cc3cccc(Cl)c3)c3ccc(OC(F)(F)F)cc23)cn1    devoid of PAR4 activity

Switching to the query record.
Entry "COc1ccc(-c2c(CO)n(Cc3ccccc3F)c3ccc(OC(F)(F)F)cc23)cn1" , UniProt Q96RI0 data, PAR4 activity (in words) value: devoid of PAR4 activity
